- Tested on: SF-295 CNS
- Assay overview: NCI-60 one-dose screen, 48 h
- Condition info: 10 µM unless noted
The panel holds about 83,000 compounds, 20% with a hit somewhere; the sample as a whole holds those more often. Activity calls are given as the source filed them. The calls were made as follows: active = growth percent below 10; inactive = the rest.
Possible outcomes: YES for active, NO for inactive

Compound structure	Study target	Class
COC(=O)/C=C1/SC(=Nc2ccc([N+](=O)[O-])cc2)N(CCc2c[nH]c3ccccc23)C1=O	SF-295 CNS	NO
Cn1cc(-c2csc(-c3c[nH]c4ccc(F)cc34)n2)c2cnccc21	SF-295 CNS	YES
Nc1nc(Nc2ccc(F)cc2)nn1C(=O)c1cc(Cl)ccc1Cl	SF-295 CNS	NO
COc1cc(N=Nc2ccc(O)c3ncccc23)c2ncccc2c1	SF-295 CNS	NO
CN1CCN(c2ccc(Nc3ncc(C(N)=O)c(NCCCNC(=O)C4CCC4)n3)cc2)CC1	SF-295 CNS	NO
COc1ccc(-c2cc(-c3cccnc3)nc3sc4c(Cl)nnnc4c23)cc1OC	SF-295 CNS	NO
O=C(/C=C/c1ccc(F)cc1)Nc1ncc(Cc2ccc(F)cc2)s1	SF-295 CNS	NO
O=C(N=Nc1c(O)[nH]c2ccccc12)Nc1ccccc1Cl	SF-295 CNS	NO
CC1=C2[C@@H](CC1)[C@]1(C)O[C@@](C3CC3)(C[C@H]1OC(=O)CO)[C@H]2OC(=O)/C=C/c1ccccc1	SF-295 CNS	NO
COC(=O)N/N=C/c1c[n+]([O-])c2ccccc2[n+]1[O-]	SF-295 CNS	NO
